What EC50 was measured for each of the following?
Tested on: HEK293T cells carrying the ATF4 luciferase reporter
Assay: ATF4-Luc assay (in vitro model of vanishing white matter disease)
Assay type: cell-based, human
Details: Homo sapiens, HEK-293T; HEK293T cells with ATF4 5'-UTR firefly luciferase reporter; 1 μg/mL tunicamycin; 7 hours; One Glo luminescence

Query: Reported EC50 for O=C(COc1ccc(Cl)c(F)c1)NC12CC(N3CCC(Oc4ccc(C(F)(F)F)nc4)C3=O)(C1)C2 (stereo not shown) : what is it?
Result: 250 to 1000 nM

Query: Reported EC50 for CC1(c2ccc(Cl)cc2)CN=C(C23CC(NC(=O)COc4ccc(Cl)c(F)c4)(C2)C3)O1 (stereo not shown) : what is it?
Result: 250 to 1000 nM

Query: Reported EC50 for "O=C(COc1ccc(Cl)c(F)c1)N[C@H]1CC[C@H](N2CCN(c3ccc(OC(F)(F)F)nc3)C2=O)CC1" : what is it?
Result: > 2000 nM

Query: Reported EC50 for "O=C(COc1ccc(Cl)c(F)c1)NC12CC(N3CCN(c4ccccc4)C3=O)(C1)C2" : what is it?
Result: 250 to 1000 nM

Query: Reported EC50 for O=C(COc1ccc(Cl)c(F)c1)NC12CC(N3CC[C@H](Oc4ccc(Cl)cc4)C3=O)(C1)C2 (single isomer, unassigned) : what is it?
Result: 50 to 250 nM

Query: Reported EC50 for "O=C(COc1ccc(Cl)c(F)c1)N[C@H]1CC[C@H](N2CCN(c3cnc(C(F)F)cn3)C2=O)CC1" : what is it?
Result: < 50 nM

Query: Reported EC50 for "O=C(COc1ccc(Cl)c(F)c1)N[C@H]1CC[C@H](N2CCN(c3ccc(Cl)cn3)C2=O)CC1" : what is it?
Result: < 50 nM

---

What EC50 was measured for each of the following?
Test system: HEK293T cells carrying the ATF4 luciferase reporter
Assay: ATF4-Luc assay (in vitro model of vanishing white matter disease)
Type: cell-based, human
Conditions: Homo sapiens, HEK-293T; HEK293T cells with ATF4 5'-UTR firefly luciferase reporter; 1 μg/mL tunicamycin; 7 hours; One Glo luminescence

Query: Reported EC50 for Cn1nc(C(F)(F)F)cc1OC1CCN(C23CC(NC(=O)COc4ccc(Cl)c(F)c4)(C2)C3)C1=O (stereo not drawn) : what is it?
Result: > 2 µM

Query: Reported EC50 for O=C(COc1ccc(Cl)c(F)c1)NC12CC(N3C(=O)OC(c4ccc(F)cc4)C3=O)(C1)C2 (stereo not drawn) : what is it?
Result: 1 to 2 µM

Query: Reported EC50 for "O=C(COc1ccc(C(F)(F)F)nc1)N[C@H]1CC[C@H](N2CCN(c3ccc(C(F)F)cn3)C2=O)CC1" : what is it?
Result: 0.05 to 0.25 µM

Query: Reported EC50 for "O=C(COc1ccc(Cl)c(F)c1)N[C@H]1CC[C@H](N2CCN(c3ccc4c(c3)OC(F)(F)O4)C2=O)CC1" : what is it?
Result: < 0.05 µM

Query: Reported EC50 for "O=C(CCOc1ccc(Cl)c(F)c1)N[C@H]1CC[C@H](N2CCN(c3cnc(C(F)F)cn3)C2=O)CC1" : what is it?
Result: 0.25 to 1 µM

Query: Reported EC50 for "O=C(COc1ccc(Cl)c(Cl)c1)N[C@H]1CC[C@H](N2CCN(c3cnc(C(F)F)cn3)C2=O)CC1" : what is it?
Result: < 0.05 µM

Query: Reported EC50 for O=C(COc1ccc(Cl)c(F)c1)NC12CCC(N3CC(c4ccc(Cl)c(F)c4)CC3=O)(CC1)C[C@@H]2O (stereo partly drawn) : what is it?
Result: < 0.05 µM

Query: Reported EC50 for O=C(COc1ccc(Cl)c(F)c1)NC12CC(N3C(=O)c4cc(Cl)ccc4[C@@H]3O)(C1)C2 (single isomer, unassigned) : what is it?
Result: > 2 µM

Query: Reported EC50 for "O=C(COc1ccc(Cl)c(F)c1)NC12CC(N3CNc4cc(F)c(F)cc4C3=O)(C1)C2" : what is it?
Result: 0.25 to 1 µM

Query: Reported EC50 for "O=c1[nH]c2cc(Cl)ccc2c(=O)n1C12CC(NCCOc3ccc(Cl)c(F)c3)(C1)C2" : what is it?
Result: > 2 µM

Query: Reported EC50 for "Cc1csc(N2CCN([C@H]3CC[C@H](NC(=O)COc4ccc(Cl)c(F)c4)CC3)C2=O)n1" : what is it?
Result: 0.25 to 1 µM

Query: Reported EC50 for Cc1nn(C)c(C)c1OC1CCN(C23CC(NC(=O)COc4ccc(Cl)c(F)c4)(C2)C3)C1=O (stereo not drawn) : what is it?
Result: > 2 µM

Query: Reported EC50 for O=C(COc1ccc(Cl)c(F)c1)NC12CC(N3CC(c4ccc(Cl)c(F)c4)OC3=O)(C1)C2 (stereo not drawn) : what is it?
Result: 0.05 to 0.25 µM

Query: Reported EC50 for "O=C(COc1ccc(Cl)c(F)c1)NC12CC(n3ccn(-c4ccc(Cl)cc4)c3=O)(C1)C2" : what is it?
Result: < 0.05 µM

Query: Reported EC50 for O=C(NC12CC(N3CC(c4ccc(Cl)c(F)c4)OC3=O)(C1)C2)c1cnc(C(F)F)cn1 (stereo not drawn) : what is it?
Result: > 2 µM
